Listed next: entries and their corresponding inhibition of growth at 10 µM.
test-name: Growth inhibition of human UO31 cells at 10 uM after 48 hrs
Type: functional
assay-conditions: UO-31, 48 h, read-out: GI

compound	comparative-sign	inhibition of growth at 10 µM / %
COc1ccc(/C=C2\CCCc3c2nc(N)nc3-c2ccc(OC)cc2)cc1	<	30
Nc1nc2c(c(-c3ccc(Br)cc3)n1)CCC/C2=C\c1ccc(Br)cc1	<	30
COc1ccc(/C=C2\CCCc3c2nc(C)nc3-c2ccc(OC)c(OC)c2)cc1OC	=	65.7
COc1cc(/C=C2\CCCC3=C(c4cc(OC)c(OC)c(OC)c4)Nc4ccccc4N=C32)cc(OC)c1OC	=	94.4
COc1ccc(/C=C2\CCCc3c2nc(C)nc3-c2ccc(OC)cc2)cc1	<	30

====

Test system: IGROV-1
test-name: Growth inhibition of human IGROV1 cells at 10 uM after 48 hrs
Assay type: functional
assay-conditions: IGROV-1, 48 h, read-out: GI
Listed next: entries and their corresponding inhibition of growth at 10 µM.
endpoint-label: inhibition of growth at 10 µM

compound	test-result
COc1ccc(/C=C2\CCCc3c2nc(N)nc3-c2ccc(OC)cc2)cc1	< 30%
COc1ccc(/C=C2\CCCC3=C(c4ccc(OC)cc4)Nc4ccccc4N=C32)cc1	< 30%
Cc1nc2c(c(-c3ccc(Cl)cc3)n1)CCC/C2=C\c1ccc(Cl)cc1	< 30%
Nc1nc2c(c(-c3ccc(Br)cc3)n1)CCC/C2=C\c1ccc(Br)cc1	< 30%
COc1ccc(/C=C2\CCCc3c2nc(C)nc3-c2ccc(OC)c(OC)c2)cc1OC	75.6%
Nc1nc2c(c(-c3ccc(Cl)cc3)n1)CCC/C2=C\c1ccc(Cl)cc1	< 30%

====

test-name: Growth inhibition of human OVCAR5 cells at 10 uM after 48 hrs
Format: functional
assay-conditions: OVCAR-5, 48 h, read-out: GI
Listed next: entries and their corresponding inhibition of growth at 10 µM.

compound	inhibition of growth at 10 µM
Cc1nc2c(c(-c3ccc(Br)cc3)n1)CCC/C2=C\c1ccc(Br)cc1	< 30%
COc1ccc(/C=C2\CCCc3c2nc(C)nc3-c2ccc(OC)cc2)cc1	< 30%
Cc1nc2c(c(-c3ccc(Cl)cc3)n1)CCC/C2=C\c1ccc(Cl)cc1	< 30%
COc1cc(/C=C2\CCCc3c2nc(C)nc3-c2cc(OC)c(OC)c(OC)c2)cc(OC)c1OC	89.2%

====

test-name: Cytotoxicity against human leukemia cells at 10 uM after 48 hrs
Type: functional
assay-conditions: Leukemia cell
Listed next: entries and their corresponding GI50.
endpoint-label: GI50 (nM)

compound	output-unit	test-result
COc1cc(/C=C2\CCCC3=C(c4cc(OC)c(OC)c(OC)c4)Nc4ccccc4N=C32)cc(OC)c1OC	nM	1400
COc1ccc(/C=C2\CCCc3c2nc(N)nc3-c2ccc(OC)c(OC)c2)cc1OC	nM	2100
COc1cc(/C=C2\CCCc3c2nc(C)nc3-c2cc(OC)c(OC)c(OC)c2)cc(OC)c1OC	nM	1100
Nc1nc2c(c(-c3ccc(Cl)cc3)n1)CCC/C2=C\c1ccc(Cl)cc1	nM	7800
Clc1ccc(/C=C2\CCCC3=C(c4ccc(Cl)cc4)Nc4ccccc4N=C32)cc1	nM	4100
COc1ccc(/C=C2\CCCc3c2nc(C)nc3-c2ccc(OC)c(OC)c2)cc1OC	nM	6800
COc1cc(/C=C2\CCCc3c2nc(N)nc3-c2cc(OC)c(OC)c(OC)c2)cc(OC)c1OC	nM	1300

====

Tested on: SF-268
test-name: Growth inhibition of human SF268 cells at 10 uM after 48 hrs
Type: functional
assay-conditions: SF-268, 48 h, read-out: GI
Listed next: entries and their corresponding inhibition of growth at 10 µM.
endpoint-label: inhibition of growth at 10 µM

compound	test-result
Nc1nc2c(c(-c3ccc(Cl)cc3)n1)CCC/C2=C\c1ccc(Cl)cc1	< 30%
COc1ccc(/C=C2\CCCc3c2nc(N)nc3-c2ccc(OC)c(OC)c2)cc1OC	36.2%
COc1ccc(/C=C2\CCCc3c2nc(N)nc3-c2ccc(OC)cc2)cc1	< 30%
Cc1nc2c(c(-c3ccc(Cl)cc3)n1)CCC/C2=C\c1ccc(Cl)cc1	< 30%
COc1ccc(/C=C2\CCCc3c2nc(C)nc3-c2ccc(OC)c(OC)c2)cc1OC	80%
Clc1ccc(/C=C2\CCCC3=C(c4ccc(Cl)cc4)Nc4ccccc4N=C32)cc1	< 30%
COc1ccc(/C=C2\CCCc3c2nc(C)nc3-c2ccc(OC)cc2)cc1	< 30%
Nc1nc2c(c(-c3ccc(Br)cc3)n1)CCC/C2=C\c1ccc(Br)cc1	< 30%
Cc1nc2c(c(-c3ccc(Br)cc3)n1)CCC/C2=C\c1ccc(Br)cc1	< 30%
COc1cc(/C=C2\CCCC3=C(c4cc(OC)c(OC)c(OC)c4)Nc4ccccc4N=C32)cc(OC)c1OC	74%
COc1ccc(/C=C2\CCCC3=C(c4ccc(OC)cc4)Nc4ccccc4N=C32)cc1	< 30%
COc1cc(/C=C2\CCCc3c2nc(N)nc3-c2cc(OC)c(OC)c(OC)c2)cc(OC)c1OC	84.9%
COc1cc(/C=C2\CCCc3c2nc(C)nc3-c2cc(OC)c(OC)c(OC)c2)cc(OC)c1OC	78.8%

====

Tested on: CAKI-1
test-name: Growth inhibition of human CAKI-1 cells at 10 uM after 48 hrs
Format: functional
assay-conditions: CAKI-1, 48 h, read-out: GI
endpoint-label: inhibition of growth at 10 µM

compound	experimental-target	test-result
COc1ccc(/C=C2\CCCc3c2nc(N)nc3-c2ccc(OC)cc2)cc1	CAKI-1	< 30%
Nc1nc2c(c(-c3ccc(Cl)cc3)n1)CCC/C2=C\c1ccc(Cl)cc1	CAKI-1	< 30%
Cc1nc2c(c(-c3ccc(Br)cc3)n1)CCC/C2=C\c1ccc(Br)cc1	CAKI-1	< 30%
COc1cc(/C=C2\CCCc3c2nc(C)nc3-c2cc(OC)c(OC)c(OC)c2)cc(OC)c1OC	CAKI-1	88.6%
COc1ccc(/C=C2\CCCc3c2nc(C)nc3-c2ccc(OC)cc2)cc1	CAKI-1	< 30%
COc1cc(/C=C2\CCCC3=C(c4cc(OC)c(OC)c(OC)c4)Nc4ccccc4N=C32)cc(OC)c1OC	CAKI-1	93.5%
Cc1nc2c(c(-c3ccc(Cl)cc3)n1)CCC/C2=C\c1ccc(Cl)cc1	CAKI-1	< 30%
COc1ccc(/C=C2\CCCc3c2nc(N)nc3-c2ccc(OC)c(OC)c2)cc1OC	CAKI-1	44.2%
COc1ccc(/C=C2\CCCc3c2nc(C)nc3-c2ccc(OC)c(OC)c2)cc1OC	CAKI-1	94.9%
Nc1nc2c(c(-c3ccc(Br)cc3)n1)CCC/C2=C\c1ccc(Br)cc1	CAKI-1	< 30%
COc1ccc(/C=C2\CCCC3=C(c4ccc(OC)cc4)Nc4ccccc4N=C32)cc1	CAKI-1	< 30%
Clc1ccc(/C=C2\CCCC3=C(c4ccc(Cl)cc4)Nc4ccccc4N=C32)cc1	CAKI-1	< 30%

====

test-name: Cytotoxicity against human melanoma cells at 10 uM after 48 hrs
Assay type: functional
assay-conditions: Melanoma cell, read-out: LC50 (the source's name)

compound	output-unit	comparative-sign	CC50
COc1ccc(/C=C2\CCCc3c2nc(C)nc3-c2ccc(OC)c(OC)c2)cc1OC	µM	>	100
COc1cc(/C=C2\CCCC3=C(c4cc(OC)c(OC)c(OC)c4)Nc4ccccc4N=C32)cc(OC)c1OC	µM	=	71.4
Nc1nc2c(c(-c3ccc(Cl)cc3)n1)CCC/C2=C\c1ccc(Cl)cc1	µM	=	80
COc1ccc(/C=C2\CCCc3c2nc(N)nc3-c2ccc(OC)c(OC)c2)cc1OC	µM	=	95.6
Clc1ccc(/C=C2\CCCC3=C(c4ccc(Cl)cc4)Nc4ccccc4N=C32)cc1	µM	=	64.2
COc1cc(/C=C2\CCCc3c2nc(N)nc3-c2cc(OC)c(OC)c(OC)c2)cc(OC)c1OC	µM	>	100
O=c1[nH]cc(F)c(=O)[nH]1 [FLUOROURACIL]	µM	>	100
COc1cc(/C=C2\CCCc3c2nc(C)nc3-c2cc(OC)c(OC)c(OC)c2)cc(OC)c1OC	µM	>	100

====

Listed next: entries and their corresponding GI50.
test-name: Cytotoxicity against human renal cancer cells at 10 uM after 48 hrs
Assay type: functional
assay-conditions: Cancer cell lines
endpoint-label: GI50 (µM)

compound	output-unit	test-result
COc1ccc(/C=C2\CCCc3c2nc(N)nc3-c2ccc(OC)c(OC)c2)cc1OC	µM	7.8
COc1cc(/C=C2\CCCc3c2nc(C)nc3-c2cc(OC)c(OC)c(OC)c2)cc(OC)c1OC	µM	2.2
Clc1ccc(/C=C2\CCCC3=C(c4ccc(Cl)cc4)Nc4ccccc4N=C32)cc1	µM	3.3
COc1ccc(/C=C2\CCCc3c2nc(C)nc3-c2ccc(OC)c(OC)c2)cc1OC	µM	23.7
Nc1nc2c(c(-c3ccc(Cl)cc3)n1)CCC/C2=C\c1ccc(Cl)cc1	µM	14.7
O=c1[nH]cc(F)c(=O)[nH]1 [FLUOROURACIL]	µM	45.6
COc1cc(/C=C2\CCCC3=C(c4cc(OC)c(OC)c(OC)c4)Nc4ccccc4N=C32)cc(OC)c1OC	µM	2.3
COc1cc(/C=C2\CCCc3c2nc(N)nc3-c2cc(OC)c(OC)c(OC)c2)cc(OC)c1OC	µM	1.8
